Task for the reader: assign each of the following molecules its reported IC50.
# TARGET: human, mouse or rat recombinant CSE (UniProt P32929)
# MEASUREMENT_DESCRIPTION: CSE In Vitro Assay
# MEASUREMENT_CONTEXT: recombinant CSE 20 ug/ml, 50 uM PLP, DL-homocysteine substrate, 3 hours 37° C.; species of enzyme not given
Counter-ions that a name gives are not always drawn.

Check out these entries, answers already filled in.
{"columns": ["MOLECULE", "QUANTITY", "TEST_VALUE"],
 "data": [
  ["C#CC[C@H](N)c1noc(=O)[nH]1 [Example 1-3, hydrochloride]", "IC50", "< 10 µM"],
  ["C#CC[C@H](N)C(=O)Nc1nn[nH]n1 [Example 1-7]", "IC50", "10 to 100 µM"],
  ["CCN(N)C(=O)NS(=O)(=O)c1ccccc1 [Example 2-35]", "IC50", "> 100 µM"],
  ["CC(C)CN(N)c1nnn[nH]1 [Example 2-10]", "IC50", "> 100 µM"]
]}

Quick one: give me IC50 for each item below, same order please.
1. C1CCC(=NNc2nnn[nH]2)CC1 [Example 2-23]
2. CC(C)N(N)c1nnn[nH]1 [Example 2-9]

Output:
["< 10 µM", "> 100 µM"]

====

# TARGET: human, mouse or rat recombinant CSE (UniProt P32929)
# MEASUREMENT_DESCRIPTION: CSE In Vitro Assay
# MEASUREMENT_CONTEXT: […]; species of enzyme not given
Where a name gives a salt, the structure may show the parent alone.
QUANTITY: IC50

{"columns": ["MOLECULE", "TARGET", "QUANTITY", "TEST_VALUE"],
 "data": [
  ["N#CCC(N)c1nnn[nH]1 (stereo not drawn) [Example 1-1, dihydrochloride]", "human, mouse or rat recombinant CSE (UniProt P32929)", "IC50", "> 100 µM"],
  ["COCCN(N)c1nnn[nH]1", "human, mouse or rat recombinant CSE (UniProt P32929)", "IC50", "10 to 100 µM"]
]}

Task: Report the value of IC50 obtained on human, mouse or rat recombinant CSE (UniProt P32929) for NCCCN(N)c1nnn[nH]1 [Example 2-12, dihydrochloride] .
Output: < 10 µM

====

# TARGET: human, mouse or rat recombinant CSE (UniProt P32929)
# MEASUREMENT_DESCRIPTION: CSE In Vitro Assay
Would you mind telling me the reported IC50 of each entry?

Each molecule below has a recorded value; state its IC50.
1. CCN(N)c1nnn[nH]1 [Example 2-4]
2. CN(N)c1nnn(C)n1 [Example 2-29]

Output:
1: < 10 µM; 2: > 100 µM

====

Would you kindly list pIC50 for each of these compounds?
# TARGET: human, mouse or rat recombinant CSE (UniProt P32929)
# MEASUREMENT_DESCRIPTION: CSE In Vitro Assay
# MEASUREMENT_CONTEXT: recombinant CSE 20 ug/ml, 50 uM PLP, DL-homocysteine substrate, 3 hours 37° C.; species of enzyme not given
pIC50: −log10 of the molar value. Where a name gives a salt, the structure may show the parent alone.

Each compound below has a reported value. Please supply its pIC50.
1. CCCN(N)c1nnn[nH]1
2. CCN(N)c1ncn[nH]1 [Example 2-31, 5-(1-ethylhydrazinyl)-1H-1,2,4-triazole]
3. C#CC[C@H](N)c1nnn[nH]1 [Example 1-2, hydrochloride]
4. CNCCN(N)c1nnn[nH]1
5. C#CC[C@H](N)c1nc(C(F)(F)F)n[nH]1 [Example 1-5, hydrochloride]

Output:
1. 4.00 to 5.00
2. < 4.00
3. > 5.00
4. 4.00 to 5.00
5. < 4.00
